Some compounds, each annotated with its measured CC50 at 96 h.
Assay summary: Cytotoxicity assay (AlamarBlue) in mock infected MT-2 cells
Assay type: cell-based
Measurement parameters: human
Measurement type: CC50 at 96 h (µM)

| Compound | Measurement type | Recorded value |
| --- | --- | --- |
| COc1cc2c(cc1OCc1ccccc1)CCNC2/C=C/c1cscn1 (centres unmarked) | CC50 at 96 h | 25.4 |
| COCCCCOc1cc(OC)ccc1/C=C/C1NCCc2cc(OCc3ccccc3)c(OC)cc21 (centres unmarked) | CC50 at 96 h | 5.6 |
| COc1cc2c(cc1OCc1ccccc1)CCNC2/C=C/c1ccc(-c2ccccn2)cc1 (centres unmarked) | CC50 at 96 h | 5.8 |
| COc1cc2c(cc1OCc1ccccc1)CCNC2/C=C/c1ccc2c(c1)CCCO2 (centres unmarked) | CC50 at 96 h | 5.36 |
| COc1cc(OC)c(/C=C/C2NCCc3cc(OCc4ccccc4)c(OC)cc32)cc1C (centres unmarked) | CC50 at 96 h | 3.59 |

====

Assay summary: Cytotoxicity assay (AlamarBlue) in mock infected MT-2 cells
Type: cell-based
Measurement parameters: human
# CC50 at 96 h annotations

| Molecule | Unit text | CC50 at 96 h |
| --- | --- | --- |
| COc1cc(C)c(/C=C/C2NCCc3cc(OCc4ccccc4)c(OC)cc32)cc1OCCCCN=[N+]=[N-] (stereo not drawn) | µM | 1.63 |
| COc1ccc(/C=C/C2NCCc3cc(OCc4ccccc4)c(OC)cc32)cc1OC (stereo not drawn) | µM | 8.7 |
| COc1cc2c(cc1OCc1ccccc1)CCNC2/C=C/c1cccc2c1ccn2C(=O)OC(C)(C)C (stereo not drawn) | µM | 5.99 |
| COc1cc2c(cc1OCc1ccccc1)CCNC2/C=C/c1cc(OCC2CCNCC2)c(OC)cc1C (stereo not drawn) | µM | 1.97 |
| COc1cc2c(cc1OCc1ccccc1)CCNC2/C=C/c1ccc(OC)c(C(F)(F)F)c1 (stereo not drawn) | µM | 4 |
| CCN1CCN(c2ccc(/C=C/C3NCCc4cc(OCc5ccccc5)c(OC)cc43)cc2)CC1 (stereo not drawn) | µM | 3.61 |
| COc1cc(C)c(/C=C/C2NCCc3cc(OCc4ccccc4)c(OC)cc32)cc1C (stereo not drawn) | µM | 2.63 |
| COc1cc2c(cc1OCc1ccccc1)CCNC2/C=C/c1ccccc1N1CCOCC1 (stereo not drawn) | µM | 17.8 |
| COc1ccc(/C=C/C2NCCc3cc(OCc4ccccc4)c(OC)cc32)cc1COCC(F)(F)F (stereo not drawn) | µM | 1.94 |
| COc1cc2c(cc1OCc1ccccc1)CCNC2/C=C/c1ccc2c(c1)OC(F)(F)O2 (stereo not drawn) | µM | 10 |
| COc1cc2c(cc1OCc1ccccc1)CCNC2/C=C/c1ccc2ccn(C(=O)OC(C)(C)C)c2c1 (stereo not drawn) | µM | 6.15 |
| COc1cc2c(cc1OCc1ccccc1)CCNC2/C=C/c1ccnn1C (stereo not drawn) | µM | 10 |

====

Assay summary: Cytotoxicity assay (AlamarBlue) in mock infected MT-2 cells
Format: cell-based
Measurement parameters: human
Description: The present assay was used to screen candidate antiviral compounds by quantification of virus spread and production over several rounds of infection in vitro. […] Additionally, viral spread was quantified by measuring luciferase activity via a commercially available luciferase substrate. […] Compound toxicity was quantified 96 hours after treatment with AlamarBlue. […]
Consider the following compounds and their measured CC50 at 96 h readings.
Measurement type: CC50 at 96 h (µM)

| Compound | Recorded value |
| --- | --- |
| COc1cc2c(cc1OCc1ccccc1)CCNC2/C=C/c1ccc(OC(F)(F)F)cc1C (centres unmarked) | 5 |
| CCCCN1CCc2cc(OCc3ccccc3)c(OC)cc2C1/C=C/c1ccc(OC)c(OCc2ccccc2)c1 (centres unmarked) | 5 |
| COc1cc2c(cc1OCc1ccccc1)CCNC2c1cc(OCc2ccccc2)c(OC)cc1C (centres unmarked) | 5.14 |
| COc1cc(F)c(/C=C/C2NCCc3cc(OCc4ccccc4)c(OC)cc32)cc1OC (centres unmarked) | 5.61 |
| COc1ccc2cc(/C=C/C3NCCc4cc(OCc5ccccc5)c(OC)cc43)ccc2c1 (centres unmarked) | 5.84 |
| COc1cc2c(cc1OCc1ccccc1)CCNC2/C=C/c1c[nH]c2ccccc12 (centres unmarked) | 6.55 |
| COc1cc2c(cc1OCc1ccccc1)CCNC2/C=C/c1ccccc1 (centres unmarked) | 10 |
| COc1cc2c(cc1OCc1ccccc1)CCNC2/C=C/c1cc2c(cc1C)OCCC2 (centres unmarked) | 4.87 |
